Target: Alpha glucosidase (Homo sapiens, UniProt O43451+P10253+P14410+Q2M2H8)
Test: Inhibition of alpha glucosidase (unknown origin) using p-nitrophenyl glucopyranoside as substrate by multimode plate reader analysis
Type: protein assay
// reported IC50 for each item listed
Report only the number, with the unit µM understood.

c1ccc2c(c1)COC(c1c[nH]c3ccccc13)N2 (stereo unspecified) = 11.5
Cc1ccc2c(c1)COC(c1c(C)[nH]c3ccccc13)N2 (stereo unspecified) = 11.5
Clc1ccc2c(c1)COC(c1c(-c3ccccc3)[nH]c3ccccc13)N2 (stereo unspecified) = 11.5

Please give the documented IC50 of Cc1ccc2c(c1)COC(c1c(-c3ccccc3)[nH]c3ccccc13)N2 (stereo unspecified)
11.5

Provide only the value of recorded IC50 for Clc1ccc2c(c1)NC(c1c[nH]c3ccccc13)OC2 (stereo unspecified)
11.5

Name the recorded IC50 of the item Cc1[nH]c2ccccc2c1C1Nc2ccccc2CO1 (stereo unspecified) in your answer.
11.5
